- PROTOCOL: TNS assay, apparent pKa of cationic lipid in 1:57 SNALP
- CONDITION_LABEL: 1:57 SNALP formulation containing encapsulated APOB siRNA
Catalogue of compounds with associated pKa

Returns the measured pKa for the input compound. Input: CC(C)CCCC(C)CCCC(C)CCCC(C)CCOCC(CCN(C)C)OCCC(C)CCCC(C)CCCC(C)CCCC(C)C (centres unmarked)
~6.1

Give its pKa value. Item: CC/C=C\C/C=C\C/C=C\C/C=C\C/C=C\C/C=C\CCCOCC(CN(C)C)OCCC/C=C\C/C=C\C/C=C\C/C=C\C/C=C\C/C=C\CC (centres unmarked)
~5.65
